ASSAYED_TARGET: Human KIF18A (amino acid sequence 1-417) (Homo sapiens)
Sequence (Q8NI77 1-417): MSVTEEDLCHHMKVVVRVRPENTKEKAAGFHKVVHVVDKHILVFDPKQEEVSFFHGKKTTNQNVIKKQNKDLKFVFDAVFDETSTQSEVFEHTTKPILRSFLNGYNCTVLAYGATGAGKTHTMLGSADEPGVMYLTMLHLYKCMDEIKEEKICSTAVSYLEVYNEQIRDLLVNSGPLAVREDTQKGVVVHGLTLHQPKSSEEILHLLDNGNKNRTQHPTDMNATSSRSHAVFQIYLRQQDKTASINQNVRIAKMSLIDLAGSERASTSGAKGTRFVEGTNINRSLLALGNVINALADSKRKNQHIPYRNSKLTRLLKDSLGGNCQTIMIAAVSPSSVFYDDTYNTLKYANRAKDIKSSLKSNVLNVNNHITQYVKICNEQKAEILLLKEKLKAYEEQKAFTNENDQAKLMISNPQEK
ASSAY_METHOD_TEXT: Enzymatic activity test (ADP-Glo, microtubule-stimulated ATPase)
CONDITIONS: KIF18A 2.5 nM, ATP 25 μM, microtubules 60 μg/mL, 120 min at ambient temperature, ADP-Glo chemiluminescence; read-out: Enzyme Activity
EXPERIMENTAL_ENDPOINT: pIC50
Quick note: pIC50 values are minus log10 of concentrations in mol/L.

// query # pIC50 lookup, item Cc1cc(NC(=O)c2c(N3CCC4(CC3)CC4)cc(NS(=O)(=O)C(C)(C)CO)c3c2CCC3)nc(N2CCC(F)(F)CC2)n1
// result 6.77

// query What do you get for Cc1cc(NC(=O)c2c(N3CCC4(CC3)CC4)cc(NS(=O)(=O)CCO)c3ccccc23)nc(N2CCC(F)(F)CC2)n1 ?
// result 6.76

// query Moving on to the next molecule: Cc1cc(NC(=O)c2c(N3CCC4(CC3)CC4)cc(NS(=O)(=O)CCO)c3c2OCC3)nc(N2CCC(F)(F)CC2)n1
// result 7.57

// query Entry CC(CO)S(=O)(=O)Nc1cc(N2CCC3(CC2)CC3)c(C(=O)Nc2cc3sc(N)nc3c(N3CCC(F)(F)CC3)c2F)c2ccccc12 (centres unmarked) please
// result 6.74

// query Same lookup for Cc1cc(NC(=O)c2c(N3CCC4(CC3)CC4)cc(NS(=O)(=O)CCO)c3ccoc23)nc(N2CCC(F)(F)CC2)n1 , please.
// result 7.54

// query Ok, now Cc1cc(NC(=O)c2c(N3CCC4(CC3)CC4)cc(NS(=O)(=O)CCO)c3cccnc23)nc(N2CCC(F)(F)CC2)n1
// result 6.55

// query Request: Cc1cc(NC(=O)c2c(N3CCC4(CC3)CC4)cc(NS(=O)(=O)CCO)n3ccnc23)nc(N2CCC(F)(F)CC2)n1
// result 6.95

// query # repeat for COc1cc(NC(=O)c2c(N3CCC4(CC3)CC4)cc(NS(=O)(=O)CCO)c3ccccc23)nc(N2CCC(F)(F)CC2)n1
// result 6.20

// query Subsequent entry: Cc1cc(NC(=O)c2c(N3CCC4(CC3)CC4)cc(NS(=O)(=O)CCO)c3ncccc23)nc(N2CCC(F)(F)CC2)n1
// result 6.87

// query Okay, and Cc1cc(NC(=O)c2c(N3CCC4(CC3)CC4)cc(NS(=O)(=O)CCO)c3c2CCC3)nc(N2CCC(F)(F)CC2)n1 ?
// result 6.75

// query What would you report for O=C(Nc1cc2cccnc2c(N2CCC(F)(F)CC2)c1F)c1c(N2CCC3(CC2)CC3)cc(NS(=O)(=O)CCO)c2ccccc12 ?
// result 6.63

---

Tested on: HT29 cells
ASSAY_METHOD_TEXT: CyQuant cell proliferation activity test
Format: cell-based
CONDITIONS: Homo sapiens, HT-29, 72 h; HT29 at 2000 cells per well, 3 days incubation, CyQuant, initial concentration 3000 nM, DMSO 0.2%; read-out: HT-29 Cell Viability_IC50_nM
EXPERIMENTAL_ENDPOINT: IC50 (nM)
Numeric answer only, unit nM assumed.

// query Param item = Cc1cc(NC(=O)c2c(N3CCC4(CC3)CC4)cc(NS(=O)(=O)CCO)c3c2CCC3)nc(N2CCC(F)(F)CC2)n1 [Example 9] ; retrieve measured IC50.
// result 37

// query Also, Cc1cc(NC(=O)c2c(N3CCC4(CC3)CC4)cc(NS(=O)(=O)CCO)c3ccoc23)nc(N2CCC(F)(F)CC2)n1 [Example 2] please.
// result 50

// query Param item: Cc1cc(NC(=O)c2c(N3CCC4(CC3)CC4)cc(NS(=O)(=O)CCO)c3ncccc23)nc(N2CCC(F)(F)CC2)n1 [Example 5]
// result 65

// query Try Cc1cc(NC(=O)c2c(N3CCC4(CC3)CC4)cc(NS(=O)(=O)CCO)n3ccnc23)nc(N2CCC(F)(F)CC2)n1 [Example 1] next.
// result 877

// query Consider next the compound CC(CO)S(=O)(=O)Nc1cc(N2CCC3(CC2)CC3)c(C(=O)Nc2cc3sc(N)nc3c(N3CCC(F)(F)CC3)c2F)c2ccccc12 (stereo not shown) [Example 10] in the same way.
// result 44

// query Next entry: O=C(Nc1cc2cccnc2c(N2CCC(F)(F)CC2)c1F)c1c(N2CCC3(CC2)CC3)cc(NS(=O)(=O)CCO)c2ccccc12 [Example 6]
// result 74

// query Another compound to look at: COc1cc(NC(=O)c2c(N3CCC4(CC3)CC4)cc(NS(=O)(=O)CCO)c3ccccc23)nc(N2CCC(F)(F)CC2)n1 [Example 7]
// result 123

---

System: HT29 cells
ASSAY_METHOD_TEXT: CyQuant cell proliferation activity test
Assay type: cell-based
CONDITIONS: Homo sapiens, HT-29, 72 h; HT29 at 2000 cells per well, 3 days incubation, CyQuant, initial concentration 3000 nM, DMSO 0.2%; read-out: HT-29 Cell Viability_IC50_nM
What pIC50 was measured for each of the following?
The quantity pIC50 is defined as the negative base-10 logarithm of the molar concentration.

// query Which pIC50 value belongs to Cc1cc(NC(=O)c2c(N3CCC4(CC3)CC4)cc(NS(=O)(=O)CCO)c3c2OCC3)nc(N2CCC(F)(F)CC2)n1 ?
// result 7.35

// query // next record Cc1cc(NC(=O)c2c(N3CCC4(CC3)CC4)cc(NS(=O)(=O)C(C)(C)CO)c3c2CCC3)nc(N2CCC(F)(F)CC2)n1
// result 7.54

---

Test system: OVCAR3 cells
ASSAY_METHOD_TEXT: Cell proliferation activity test (CyQUANT Direct)
Format: cell-based
CONDITIONS: Homo sapiens, OVCAR-3, 72 h; OVCAR3 cells, 3 days incubation, CyQUANT fluorescence detection, DMSO 0.2%; read-out: OVCAR-3 Cell Viability_IC50_nM
Kindly state pIC50 for each of the entries shown.
For clarity, pIC50 is expressed as the negative log10 of concentration in mol/L.

// query # query: pIC50 of entry O=C(Nc1cc2cccnc2c(N2CCC(F)(F)CC2)c1F)c1c(N2CCC3(CC2)CC3)cc(NS(=O)(=O)CCO)c2ccccc12
// result 7.17

// query Entry to check: Cc1cc(NC(=O)c2c(N3CCC4(CC3)CC4)cc(NS(=O)(=O)CCO)c3ccoc23)nc(N2CCC(F)(F)CC2)n1
// result 7.60

// query And CC(CO)S(=O)(=O)Nc1cc(N2CCC3(CC2)CC3)c(C(=O)Nc2cc3sc(N)nc3c(N3CCC(F)(F)CC3)c2F)c2ccccc12 (stereo not shown) ?
// result 7.46

// query Would you mind doing Cc1cc(NC(=O)c2c(N3CCC4(CC3)CC4)cc(NS(=O)(=O)CCO)c3c2CCC3)nc(N2CCC(F)(F)CC2)n1 as well?
// result 7.59

// query Try this compound next: COc1cc(NC(=O)c2c(N3CCC4(CC3)CC4)cc(NS(=O)(=O)CCO)c3ccccc23)nc(N2CCC(F)(F)CC2)n1
// result 7.01

// query Try Cc1cc(NC(=O)c2c(N3CCC4(CC3)CC4)cc(NS(=O)(=O)CCO)c3cccnc23)nc(N2CCC(F)(F)CC2)n1 next.
// result 6.31

// query Another compound: Cc1cc(NC(=O)c2c(N3CCC4(CC3)CC4)cc(NS(=O)(=O)CCO)c3c2OCC3)nc(N2CCC(F)(F)CC2)n1
// result 7.55

// query Here is the next compound: Cc1cc(NC(=O)c2c(N3CCC4(CC3)CC4)cc(NS(=O)(=O)CCO)n3ccnc23)nc(N2CCC(F)(F)CC2)n1
// result 6.35

// query Also Cc1cc(NC(=O)c2c(N3CCC4(CC3)CC4)cc(NS(=O)(=O)C(C)(C)CO)c3c2CCC3)nc(N2CCC(F)(F)CC2)n1 ?
// result 7.70

// query Note, next up: Cc1cc(NC(=O)c2c(N3CCC4(CC3)CC4)cc(NS(=O)(=O)CCO)c3ncccc23)nc(N2CCC(F)(F)CC2)n1
// result 7.44

Data origin, for the record: patent US20260217700A1
